Origin of values: PubChem BioAssay (NCI)

Test system: OVCAR-5 ovarian
Assay: NCI-60 one-dose screen, 48 h
Details: 10 µM unless noted
Compounds without any hit were thinned out: in the full panel of roughly 83,000, 20% have a hit. Activity calls are given as the source filed them. The calls were made as follows: active = growth percent below 10; inactive = the rest.
Answer with one of the outcomes given here: active, inactive

Use these answered entries as a reference point.
                               smiles_input  label_class
0  O=C(/C=C/c1ccc(Br)cc1)c1ccc(-n2cc(CN3CCN(c4cc5c(cc4F)c(=O)c(C(=O)O)cn5C4CC4)CC3)nn2)cc1     inactive
1  Cc1ccc(O)c(NC(=O)c2ccc(CNc3ccnc(C(F)(F)F)c3)cc2)c1     inactive
2               COC(=O)Cc1nc(C#N)c(N(C)C)o1     inactive
3  CCCCCCNc1nc(NCCCCCC)c2[nH]c(NCCCCCC)nc2n1       active

Consider the additional molecule presented here.
## Task Short answer needed: outcome of this test for NC(=O)c1c(NC(=O)c2ccc(Cl)cc2)sc2c1CCC(=O)C2 ?
## Result inactive
